Please consider the recorded Ki for D(3) dopamine receptor (Homo sapiens, UniProt P35462) in what follows.
endpoint_label: Ki (nM)

1) CCOc1ccccc1N1CCN(CCC[C@@H]2CC(c3ccc(OC)c(OC)c3)=NO2)CC1 2.1
2) CCOc1ccccc1N1CCN(CCC[C@H]2CC(c3ccc(OC)c(OC)c3)=NO2)CC1 5.1
3) COc1ccc(C2=NO[C@@H](CCCN3CCN(C(c4ccc(F)cc4)c4ccc(F)cc4)CC3)C2)cc1OC 20
4) COc1ccc(C2=NO[C@H](CCCN3CCN(C(c4ccc(F)cc4)c4ccc(F)cc4)CC3)C2)cc1OC 2.1

---

molecular target: UniProt P14416; experiment: Displacement of [3H]spiperone from human cloned dopamine receptor D2 long expressed in CHO cells; format: cell-based
Sequence (P14416 whole entry): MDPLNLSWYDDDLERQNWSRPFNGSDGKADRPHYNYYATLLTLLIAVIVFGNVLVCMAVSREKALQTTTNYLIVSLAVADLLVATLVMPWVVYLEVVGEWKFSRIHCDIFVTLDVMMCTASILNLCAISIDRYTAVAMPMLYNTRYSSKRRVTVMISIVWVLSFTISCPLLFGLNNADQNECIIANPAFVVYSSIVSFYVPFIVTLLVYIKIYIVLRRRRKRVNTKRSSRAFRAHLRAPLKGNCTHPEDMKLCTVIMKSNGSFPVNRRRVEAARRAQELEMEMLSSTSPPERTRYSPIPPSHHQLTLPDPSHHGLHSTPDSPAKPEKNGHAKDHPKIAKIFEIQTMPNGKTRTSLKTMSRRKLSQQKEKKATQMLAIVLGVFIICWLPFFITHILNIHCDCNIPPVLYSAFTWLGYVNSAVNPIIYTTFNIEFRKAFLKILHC
endpoint_label: Ki (nM)

1. COc1ccc(C2=NO[C@H](CCCN3CCN(C(c4ccc(F)cc4)c4ccc(F)cc4)CC3)C2)cc1OC 80
2. COc1ccc(C2=NO[C@@H](CCCN3CCN(C(c4ccc(F)cc4)c4ccc(F)cc4)CC3)C2)cc1OC 400
3. CCOc1ccccc1N1CCN(CCC[C@@H]2CC(c3ccc(OC)c(OC)c3)=NO2)CC1 46
4. CCOc1ccccc1N1CCN(CCC[C@H]2CC(c3ccc(OC)c(OC)c3)=NO2)CC1 70
